Molecular target: T1, PUF4 RNA-binding domain (Saccharomyces cerevisiae, UniProt P25339 537-888)
T1 sequence: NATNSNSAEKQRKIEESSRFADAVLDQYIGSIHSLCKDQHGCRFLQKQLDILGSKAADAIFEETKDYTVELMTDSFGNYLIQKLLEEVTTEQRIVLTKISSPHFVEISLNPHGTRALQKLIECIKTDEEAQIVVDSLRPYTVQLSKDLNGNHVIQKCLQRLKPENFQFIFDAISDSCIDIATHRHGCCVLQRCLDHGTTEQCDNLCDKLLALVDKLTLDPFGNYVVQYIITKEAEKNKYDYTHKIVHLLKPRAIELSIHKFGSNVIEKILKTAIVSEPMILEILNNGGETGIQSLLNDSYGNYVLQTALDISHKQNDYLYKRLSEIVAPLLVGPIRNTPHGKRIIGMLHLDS
Assay: Mg; RNA-MaP; 20 mM Na-HEPES pH 7.4, 30 mM KOAc, 0.75 mM MgCl2, 0.1% Tween-20, 5% glycerol, 0.1 mg/mL BSA, 2 mM DTT; 25 C; 0.0125-409.6 nM protein
Settings: tags: N-His6-TEV cleaved; C-SNAP kept, Cy3B-labelled; label: tethered on chip by stalled RNA polymerase
pKd: −log10 of the molar value.
Everything with pKd lower than 7 is f; everything else, including exactly 7, is t.

Solved entries (count: 8):
{"columns": ["Binder", "Label"],
 "data": [
  ["UCUCUUUGUAUUGCCUCUCUU (ssRNA) [Ic_S1_P4E.1_K4.1_C4.1_H4.1_A4.1_[A6T]_[T7G]_F4.1_[T8C]_[A9C]_T4.1]", "f"],
  ["UCUCUUUUUGUAUUAUUAAGUCUCUU (ssRNA) [Id_ii_S1_P5E.2_K5.1_C5.2_[C-2T]_H5.1_A5.1_F5.1_T5.2_[T11A]_[A12G]]", "t"],
  ["Id_ii_S4_P4E.2_K4.1_C4.2_[C-2A]_[T-1G]_H4.1_A4.1_F4.1_T4.2_[G10T]_[T11C] (ssRNA) RNA: UUUGACAACUGAUCGUUCUUUCUAGUGUAUAUUAUCUUCUUUCUCGAUCAGUUGUCUUU", "t"],
  ["UCUCUUAUCUGUAUAUAUAUCUCUU (ssRNA) [Id_i_S1_P3E.5_K3.1_C3.3_[T-3A]_[C-2T]_[T-1C]_H3.1_A3.1_F3.1_T3.2]", "t"],
  ["Id_iii_S2_P4E.8_K4.4_C4.3_[T-3C]_H4.1_A4.2_F4.1_T4.2 (ssRNA) RNA: UUUGAUUAAUAUGAUAUCGUUCUUUCUCCUUGUAUUUUAGUUUCUUUCUCGAUAUCAUAUUAAUCUUU", "t"],
  ["Ic_S2_P4E.1_K4.1_C4.1_H4.1_A4.1_[T5C]_[A6G]_[T7C]_F4.1_[T8C]_[A9G]_T4.1 (ssRNA) RNA: UUUGAUUAAUAUGAUAUCGUUCUUUCUUGUACGCCGUUCUUUCUCGAUAUCAUAUUAAUCUUU", "f"],
  ["UCUCUUUGUAUCAAUAUCUCUU (ssRNA) [Ib_S1_P5E.1_K5.1_C5.1_H5.1_A5.1_[T6C]_F5.1_[T8A]_T5.1]", "t"],
  ["ACAAACUAUAUAUUAACAAAC (ssRNA) [Ia_S3_P4E.1_K4.1_C4.1_H4.1_[G2A]_A4.1_F4.1_T4.1]", "t"]
]}

Kindly determine if pKd recorded for Ib_S2_P5E.1_K5.1_C5.1_H5.1_[T1C]_A5.1_F5.1_[A10C]_T5.1 (ssRNA) RNA: UUUGAUUAAUAUGAUAUCGUUCUUUCUCGUAUUAUUCUUCUUUCUCGAUAUCAUAUUAAUCUUU is above or exactly 7.
f

Is pKd for Ib_S2_P4E.1_K4.1_C4.1_H4.1_[A4G]_A4.1_[T7C]_F4.1_T4.1 (ssRNA) RNA: UUUGAUUAAUAUGAUAUCGUUCUUUCUUGUGUACUAUUCUUUCUCGAUAUCAUAUUAAUCUUU at or above 7?
t
